- Protocol Text: Chidamide pharmacokinetics in patients (compartmental modeling, Phoenix Winnonlin 7.0)
- Assay type: in vivo
- Details: male, human, plasma; 30 mg (N = 3), mCRPC patients, after first administration; read-out: t 1/2, Mean (converted)
Measured Parameter: half-life (h)
Quick reminder: number only, in h, skip the unit.

Qu. Specify measured half-life for Nc1cc(F)ccc1NC(=O)c1ccc(CNC(=O)/C=C/c2cccnc2)cc1 [chidamide, Chidamide] .
Ans. 8.06

====

- Protocol Text: Chidamide pharmacokinetics in patients (compartmental modeling, Phoenix Winnonlin 7.0)
- Format: in vivo
- Details: male, human, plasma; 20 mg (N = 4), mCRPC patients, after first administration; read-out: t 1/2, Mean (converted)
- Procedure: From patients administered with different doses of chidamide, blood samples were collected in a sodium heparin tube at the time points of 2, 4, 8, 12, and 24 h after the completion of the first administration of chidamide (Day 1) in treatment cycle 1 and cycle 2. PK parameters were estimated from chidamide concentrations measured using […] samples taken at specified time points postdosing, and were analyzed by Phoenix Winnonlin 7.0.
Measured Parameter: half-life (h)
Quick reminder: number only, in h, skip the unit.

Qu. Specify measured half-life for Nc1cc(F)ccc1NC(=O)c1ccc(CNC(=O)/C=C/c2cccnc2)cc1 [chidamide, Chidamide] .
Ans. 13.9

====

- Protocol Text: Chidamide pharmacokinetics in patients (compartmental modeling, Phoenix Winnonlin 7.0)
- Format: in vivo
- Details: male, human, plasma; 20 mg (N = 4), mCRPC patients, after first administration
Measured Parameter: Cmax (ng/mL)
Quick reminder: number only, in ng/mL, skip the unit.

Qu. Specify measured Cmax for Nc1cc(F)ccc1NC(=O)c1ccc(CNC(=O)/C=C/c2cccnc2)cc1 [chidamide, Chidamide] .
Ans. 79.2

====

- Protocol Text: Chidamide pharmacokinetics in patients (compartmental modeling, Phoenix Winnonlin 7.0)
- Assay type: in vivo
- Details: male, human, plasma; 20 mg (N = 4), mCRPC patients, after first administration; read-out: AUC0–24 h, Mean
Measured Parameter: AUC(0-t) (ng·h/mL)
Quick reminder: number only, in ng·h/mL, skip the unit.

Qu. Specify measured AUC(0-t) for Nc1cc(F)ccc1NC(=O)c1ccc(CNC(=O)/C=C/c2cccnc2)cc1 [chidamide, Chidamide] .
Ans. 1330

====

- Protocol Text: Chidamide pharmacokinetics in patients (compartmental modeling, Phoenix Winnonlin 7.0)
- Assay type: in vivo
- Details: male, human, plasma; 30 mg (N = 3), mCRPC patients, after first administration; read-out: CL, Mean (converted)
Measured Parameter: clearance (mL/min)
Quick reminder: number only, in mL/min, skip the unit.

Qu. Specify measured clearance for Nc1cc(F)ccc1NC(=O)c1ccc(CNC(=O)/C=C/c2cccnc2)cc1 [chidamide, Chidamide] .
Ans. 188

====

- Protocol Text: Chidamide pharmacokinetics in patients (compartmental modeling, Phoenix Winnonlin 7.0)
- Type: in vivo
- Details: male, human, plasma; 25 mg (N = 11), mCRPC patients, after first administration; read-out: t 1/2, Mean (converted)
Measured Parameter: half-life (min)
Quick reminder: number only, in min, skip the unit.

Qu. Specify measured half-life for Nc1cc(F)ccc1NC(=O)c1ccc(CNC(=O)/C=C/c2cccnc2)cc1 [chidamide, Chidamide] .
Ans. 818

====

- Protocol Text: Chidamide pharmacokinetics in patients (compartmental modeling, Phoenix Winnonlin 7.0)
- Assay type: in vivo
- Details: male, human, plasma; 25 mg (N = 11), mCRPC patients, after first administration; read-out: Vss, Mean
Measured Parameter: Vd (L)
Quick reminder: number only, in L, skip the unit.

Qu. Specify measured Vd for Nc1cc(F)ccc1NC(=O)c1ccc(CNC(=O)/C=C/c2cccnc2)cc1 [chidamide, Chidamide] .
Ans. 326
